Origin of measurements: ChEMBL document CHEMBL4483862

system: Plasmodium berghei; test: Luciferase/luciferin-expressing antifolate-resistant parasites were used to infect a culture of HepG2 cells that were pre-incubated with compounds. Infected hepatocytes emit light due to the luciferase reaction. Assay results are presented as the percent inhibition of light emission compared to control. […]; type: functional; conditions: sporozoite, PBLUC_HILL_SLOPE 17.4, PBLUC_R_SQUARED 0.568, read-out: LUCIFERASE INFECTION ASSAY - IC50
Measured Parameter: pIC50
Hey, just a heads up that pIC50 is the negative log base 10 of the concentration in molar.

Query: Request the reported pIC50 associated with CCc1ccc(CN2CCc3c(c(C(=O)N4CCCC(O)C4)nn3Cc3cccc(OC)c3)C2)cc1 (stereo unspecified)
Response: 5.19

====

test system: Plasmodium berghei; test: Luciferase/luciferin-expressing antifolate-resistant parasites were used to infect a culture of HepG2 cells that were pre-incubated with compounds. Infected hepatocytes emit light due to the luciferase reaction. Assay results are presented as the percent inhibition of light emission compared to control. […]; type: functional; conditions: sporozoite, HEPG2TOX_HILL_SLOPE 22.4, HEPG2TOX_R_SQUARED 0.361, PBLUC_HILL_SLOPE 19.8, PBLUC_R_SQUARED 0.355, read-out: LUCIFERASE INFECTION ASSAY - IC50
Measured Parameter: IC50

Query: Item `CCc1cccc(NS(=O)(=O)c2ccc(-n3ncc(Cl)c(Cl)c3=O)cc2)c1` with Plasmodium berghei - IC50?
Response: 8.43 µM

====

test system: Plasmodium berghei; assay: Luciferase/luciferin-expressing antifolate-resistant parasites were used to infect a culture of HepG2 cells that were pre-incubated with compounds. Infected hepatocytes emit light due to the luciferase reaction. Assay results are presented as the percent inhibition of light emission compared to control. […]; assay type: functional; conditions: sporozoite, read-out: LUCIFERASE INFECTION ASSAY - IC90
Measured Parameter: IC90

Query: Request the reported IC90 associated with `Cn1cnc([N+](=O)[O-])c1Sc1cccs1`
Response: > 13.7 µM

Query: Item: `Cc1ccc(S(=O)(=O)Nc2cc(SCC(=O)O)c(O)c3ccccc23)cc1`
Response: > 10 µM

Query: Item: `Cc1onc(-c2c(Cl)cccc2Cl)c1CO/N=C(\C#N)c1c(Cl)cccc1Cl`
Response: > 7.25 µM

Query: Item: N#Cc1cc([N+](=O)[O-])ccc1Sc1nnc(C2COc3ccccc3O2)n1-c1ccccc1 (stereo unspecified)
Response: > 10 µM

Query: Item: `C(=C(c1nc2ccccc2s1)c1nc2ccccc2s1)C1=C(c2ccccc2)Oc2ccccc2O1`
Response: > 10 µM

Query: Item: CCC(C)N1C(=O)Cc2c1nc(N)c1c(N)nc(N3CC(C)OC(C)C3)c(C#N)c21 (stereo unspecified)
Response: > 10 µM

Query: Item: `CC(=N\Nc1ccc(F)cc1)/C(=N/O)C(=O)Nc1ccccc1`
Response: > 10.5 µM

Query: Item: CCC(=O)N1CCC1(C)C(=O)NCc1ccc2c(c1)OCO2 (stereo unspecified)
Response: > 10.8 µM

Query: Item: `CC(C)(C)c1ccc(Oc2ccc(N)cc2)cc1`
Response: 4.63 µM

Query: Item: `Cc1cccc(Nc2cc3[nH]c(-c4ccc(C(=O)N(C)C)cc4)cc3cn2)c1`
Response: > 10 µM

Query: Item: `O=C(Nc1ccc(SC(F)(F)F)cc1)N1CCN(c2nc(-c3ccccc3)ns2)CC1`
Response: > 7.09 µM

Query: Item: `CCCn1c(C)cc(/C=C(\C#N)C(=O)Nc2ccc3c(c2)OCO3)c1C`
Response: 2.3 µM

Query: Item: Cc1cc(C(=O)C(C)OC(=O)CCc2nc(=O)c3ccccc3[nH]2)c(C)n1-c1ccc(Cl)cc1 (stereo unspecified)
Response: > 10 µM

Query: Item: `Cc1ccccc1-c1cn2c(-c3ccc(Cl)cc3)cnc2cn1`
Response: 5.18 µM

Query: Item: `CS(=O)(=O)c1ncc(Cl)c(C(=O)Nc2nc(-c3cc(F)ccc3F)cs2)n1`
Response: 6.15 µM

Query: Item: `c1ccc(-c2cn3ccnc3c(NCc3ccncc3)n2)cc1`
Response: 4.49 µM

Query: Item: `O=C(Nc1cccc(F)c1)N1CCC2(CC1)OCc1cc(-c3ccco3)ccc1O2`
Response: > 8.08 µM

Query: Item: `COc1ccc(CN2CCN(c3ncc(C(=O)Nc4ccc5c(c4)OCO5)s3)C2=O)cc1`
Response: 4.14 µM

Query: Item: CC(C)(C)CC(C)(C)c1ccc(OCC(O)CNC2CCC(O)CC2)cc1 (stereo unspecified)
Response: 7.58 µM

Query: Item: `COc1cccc(NC(=O)c2cccc(C3(CNCc4ccccc4F)CC3)c2)c1`
Response: > 10 µM

Query: Item: `COc1ccc(CNc2nc3cnc(Nc4ccc(F)c(Cl)c4)cc3n2C)cc1OC`
Response: > 10 µM

====

test system: Plasmodium berghei; assay: Luciferase/luciferin-expressing antifolate-resistant parasites were used to infect a culture of HepG2 cells that were pre-incubated with compounds. Infected hepatocytes emit light due to the luciferase reaction. Assay results are presented as the percent inhibition of light emission compared to control. […]; assay type: functional; details: sporozoite, FFLUC_HILL_SLOPE 3.18, FFLUC_R_SQUARED 0.644, PBLUC_HILL_SLOPE 3.44, PBLUC_R_SQUARED 0.465, read-out: LUCIFERASE INFECTION ASSAY - IC50
Measured Parameter: IC50 (µM)
Could you give me the number in µM? Just the number is fine.

Query: Request the reported IC50 associated with `O=C(Nc1nonc1-c1ccc(Cl)cc1)C(c1ccccc1)c1ccccc1`
Response: 4.34

====

system: Plasmodium berghei; experiment: Luciferase/luciferin-expressing antifolate-resistant parasites were used to infect a culture of HepG2 cells that were pre-incubated with compounds. Infected hepatocytes emit light due to the luciferase reaction. Assay results are presented as the percent inhibition of light emission compared to control. […]; assay type: functional; conditions: sporozoite, HEPG2TOX_HILL_SLOPE 1.36, HEPG2TOX_R_SQUARED 0.981, PBLUC_HILL_SLOPE 2.44, PBLUC_R_SQUARED 0.636, read-out: LUCIFERASE INFECTION ASSAY - IC50
Measured Parameter: IC50

Query: Request the reported IC50 associated with `CCNc1ccc(C(=O)OCC)cc1NC(=O)c1cccc(N(C)C)c1`
Response: 1080 nM

====

test system: Plasmodium berghei; assay: Luciferase/luciferin-expressing antifolate-resistant parasites were used to infect a culture of HepG2 cells that were pre-incubated with compounds. Infected hepatocytes emit light due to the luciferase reaction. Assay results are presented as the percent inhibition of light emission compared to control. […]; assay type: functional; details: sporozoite, FFLUC_HILL_SLOPE 26.5, FFLUC_R_SQUARED 0.442, read-out: LUCIFERASE INFECTION ASSAY - IC50
Measured Parameter: IC50

Query: Request the reported IC50 associated with `O=C(CSc1nnc(Nc2ccc(SC(F)F)cc2)s1)c1cccs1`
Response: > 10 µM

====

tested on: Plasmodium berghei; experiment: Luciferase/luciferin-expressing antifolate-resistant parasites were used to infect a culture of HepG2 cells that were pre-incubated with compounds. Infected hepatocytes emit light due to the luciferase reaction. Assay results are presented as the percent inhibition of light emission compared to control. […]; format: functional; settings: sporozoite, HEPG2TOX_HILL_SLOPE 4.98, HEPG2TOX_R_SQUARED 0.891, PBLUC_HILL_SLOPE 3.46, PBLUC_R_SQUARED 0.366, read-out: LUCIFERASE INFECTION ASSAY - IC50
Measured Parameter: IC50 (µM)
Could you give me the number in µM? Just the number is fine.

Query: Item `COc1cc(-c2cnn3ccc(Nc4ccc(C(C)C)cc4)nc23)cc(OC)c1OC` with Plasmodium berghei - IC50?
Response: 2.63

====

system: Plasmodium berghei; experiment: Luciferase/luciferin-expressing antifolate-resistant parasites were used to infect a culture of HepG2 cells that were pre-incubated with compounds. Infected hepatocytes emit light due to the luciferase reaction. Assay results are presented as the percent inhibition of light emission compared to control. […]; assay type: functional; settings: sporozoite, read-out: LUCIFERASE INFECTION ASSAY - IC50
pIC50: −log10 of the molar value.
Measured Parameter: pIC50

Query: Request the reported pIC50 associated with `CSc1sc(C(N)=S)c(C)c1C(C)=O`
Response: < 4.87

Query: Item: `Cc1ccc(S(=O)(=O)NC(=O)c2ccc(Cl)nc2Cl)cc1`
Response: < 5.00

Query: Item: `Cc1cc(C)cc(N(C(=O)Cc2coc3cc(C)ccc23)c2nc(-c3ccc(F)cc3)cs2)c1`
Response: < 5.00

Query: Item: COC(=O)c1ccc(S(=O)(=O)N2c3ccccc3CCC2C)cc1 (stereo unspecified)
Response: < 5.00

Query: Item: `FC(F)(F)c1cnc(/C=N/Nc2ncc(C(F)(F)F)cc2Cl)c(Cl)c1`
Response: 5.57

Query: Item: `N#CC1=C2SC=C(c3ccc(Br)cc3)N2CCCC1=O`
Response: < 5.00

Query: Item: `CC(C)c1ccc(NC(=O)Nc2csc(Cc3c(Cl)cccc3Cl)n2)cc1`
Response: < 5.11

Query: Item: Cc1nnc(SC2CCCCC2=O)n1C1CCCCC1 (stereo unspecified)
Response: < 5.00

Query: Item: `COc1ccc(-c2nn(-c3ccccc3)cc2C(=O)Nc2cc(C(F)(F)F)ccc2N2CCCCC2)cc1`
Response: < 5.00

Query: Item: `Cc1ccc(N2C(=O)C=CC2=O)cc1C`
Response: 5.18

Query: Item: COc1ccc(-n2nc(C)c3c2NC(=O)CC3c2ccc(O)cc2)cc1 (stereo unspecified)
Response: < 5.02
